Molecular target: Trace amine-associated receptor 1 (Homo sapiens, UniProt Q96RJ0)
Sequence (Q96RJ0 whole entry): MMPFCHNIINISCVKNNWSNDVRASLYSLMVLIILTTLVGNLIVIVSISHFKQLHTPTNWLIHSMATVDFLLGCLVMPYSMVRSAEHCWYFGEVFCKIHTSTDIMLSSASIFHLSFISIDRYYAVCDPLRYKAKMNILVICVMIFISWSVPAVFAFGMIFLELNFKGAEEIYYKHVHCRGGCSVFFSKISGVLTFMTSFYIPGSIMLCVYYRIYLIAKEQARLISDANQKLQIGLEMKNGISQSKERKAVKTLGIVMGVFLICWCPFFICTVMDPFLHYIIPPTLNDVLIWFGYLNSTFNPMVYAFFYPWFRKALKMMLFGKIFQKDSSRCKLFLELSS
Assay: Fluorescence-based cell-based high throughput dose response assay to identify agonists of the human trace amine associated receptor 1 (TAAR1).
Assay type: functional
The source made the active and inactive calls. No stated cut-off is given here; in the data, active = EC50 of 10 µM or less and inactive = more.
Entries and their EC50 values follow.

• C[C@H](NC(=O)c1ccccc1)C(=O)OCC(=O)c1c[nH]c2ccccc12 = 3.28 µM (active)
• COc1ccccc1CCn1cnc(-c2ccc(Br)cc2)c1CC(C)C = 1.75 µM (active)
• CCOC(=O)C(NCCc1ccccc1F)(NC(C)=O)C(F)(F)F (centres undefined) = 1.84 µM (active)

The compound identified as Cc1ccc(SCC(=O)Nc2ccc(N3CCN(C)CC3)c(F)c2)c(C)c1 registered its EC50 at 3.5 µM (active)

Source: ChEMBL document CHEMBL1201862
